Documented Enzyme Activity Endpoint Assay: scIgG across a set of proteins
biological target: pooled human IgG
MEASUREMENT_LABEL: Enzyme Activity Endpoint Assay: scIgG

>>> observed_measurement("PRT-49 (protein) MANQEIRYSEVTPYHVTSVWTKGVTPPANFTQGEDVFHAPYVANQGWYDITKTFNGKDDLLCGAATAGNMLHWWFDQNKDYIDRYLEEHPEKAKINFNGEQMFDVKEAIDTKNDQTDSKLFEYFKEKAFPYLSTKHLGVFPDHVIDMFINGYRLSLTNHGPTPVKEGSKDPRGGFFDDVFGRGDQSKLLTSRHDFKEKNLKEISDLIKKELTEGKALGLSHTYANVRINHVINLWGADFDSNGNLKAIYVTDSDSNASVGMKKYFVGVNSAGKVAISAKEIKEDNIGAQVLGLFTLSTGQDSWNQTN")
"40 ng/µL"
>>> observed_measurement("PRT-530 (protein) MANQEIRYSEETPKTITSVWTKGVTPPTDFIQNEDVLHAPYIANQGWYDITKTFNGKDDLLCGAATAGNMLHWWFDQNKEEIENYLKKHPEKQKINFNGEQMFDVKEAIDTKDSQTDSALFEYFKDKAFPYLSTKHLGVMPDLVLDMFINGYYLSVGKHGPTPVKRGTKDPRGGIFDAVFTRGDQSKLLTARHDFKEKTLNEISDLIKQELTEGKALALSHTYANVRINHVINLWGADFNSEGNLEAIYVTDSDSNASIGMKKYYVGVNAAGKVAISAKEIEGDNIGAQVLGLFTLSTGQDIWEQTNLEHHHHHH")
"687 ng/µL"
>>> observed_measurement("PRT-10 (protein) MANQEIRYSEVTPYTVTSVWTKGVTPPANFTQGEDVFHAPYVANQGWYDITKTFNGKDDLLCGAATAGNMLHWWFDQNKEQIERYLKEHPEKQKINFNGEQMFDVKEAIDTKDSQLDSELFEYFKEKAFPYLSTKHLGVFPDHVIDMFINGYRLSLTNHGPTPVKEGSKDPRGGIFDAVFTRGDQSKLLTSRHDFKEKTLKEISDLIKKELTEGKALALSHTYANVRINHVINLWGADFDSEGNLEAIYVTDSDSNASIGMKKYFVGVNSAGKVAISAKEIEDDNIGAQVLGLFTLSTGQDIWNQTN")
"58 ng/µL"
>>> observed_measurement("PRT-50 (protein) MANQEIRYSEVTPYHVTSVWTKGVTPPANFTQGEDVFHAPYVANQGWYDINKTFNGKDDLLCGAATAGNMLHWWFDQNKEQIERYLKEHPEKGKINFNGEQMFDVKEAIDTKNNQTDSKLFEYFKEKAFPYLSTKHLGVFPDRVLDMFINGYRLSLTNHGPTPVKEGSKDPRGGFFDDVFGRGDQSKLLTSRHDFKEKNLEEISDLIKKELTEGKALGLSHTYANVRINHVINLWGADFDSNGNLKAIYVTDSDSNASVGMKKYFVGVNSAGKVAISAKEIKEDNIGAQVLGLFTLSTGQDSWNQTN")
"0 ng/µL"
